# experimental-protocol: MM1S cell viability effects, profiling panel, calcein-AM fluorescence, 48 h, basal (AID 1165);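 also: viability of MM1S multiple myeloma cells under basal unstimulated conditions; test concentration not given here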
# details: higher = more signal
z-score below -0.2 gives rule not met; z-score at or above it gives rule met.

compound	qualitative-label
CC(C)C(=C=CC[C@H](O)c1ccc(OCCO)cc1)C[C@H](O)c1cc(Cl)cc(Cl)c1O	rule not met
C=CCN1C(=O)[C@@]2(CCC(=O)OC(C)(C)C)N=C(c3ccc(OCCCO)cc3)O[C@H]2c2ccccc21	rule not met
COc1ccc(CCNC(=O)[C@@]2(Sc3ccc(C)cc3)CC(=O)N(Cc3cc(C(F)(F)F)cc(C(F)(F)F)c3)[C@@H]2c2ccc(CO)cc2I)cc1	rule not met
[N-]=[N+]=NCc1ccccc1C[C@@]1(C(=O)N2CCCCC2)N=C(c2ccc(OCCCO)cc2)O[C@@H]1c1ccccc1N=[N+]=[N-]	rule not met
C=CC[C@@]1(C(=O)O)N=C(c2ccc(OCCCO)cc2)O[C@@H]1c1ccccc1	rule met
CCOc1cc(C(O)C2C=CC3C(=O)N(C4CCCCC4)C(=O)C3N2Nc2ccc(OC)cc2)ccc1O (centres undefined)	rule met
COc1ccc(C(O)C2C=CC3C(=O)N(Cc4ccccc4)C(=O)C3N2n2cnnc2)c2ccccc12 (centres undefined)	rule met
O=C(CS)NCCCCCCNC(=O)[C@H]1C[C@H]2C(=O)N[C@@H](Cc3ccccc3)C(=O)N2[C@H]1c1cccc(OCCO)c1	rule met
NC(=O)NCC#Cc1ccc2c(c1)[C@]1(C(=O)N2)[C@H](c2ccc(O)cc2)N2[C@H](c3ccccc3)[C@H](c3ccccc3)OC(=O)[C@H]2[C@@H]1C(=O)Nc1nc2ccccc2s1	rule met
[N-]=[N+]=NCc1ccccc1C[C@@]1(C(N)=O)N=C(c2ccc(OCCCO)cc2)O[C@@H]1c1ccccc1CN=[N+]=[N-]	rule not met
CC(CO)N1C(=O)[C@@H]2C3C(=O)OCCC/C=C\[C@H]3OC23C=CCN(Cn2nnc4ccccc42)C(=O)[C@@H]13 (some centres undefined)	rule met
C=CCN1C(=O)[C@]2(CC=C)N=C(c3ccc(OCCCO)cc3)O[C@@H]2c2ccccc21	rule not met
C=CC[C@]12N=C(c3ccc(OCCCO)cc3)O[C@H]1c1ccccc1N(C)C2=O	rule not met
CCCC[C@@H]1C[C@H]1[C@@H](NC(=O)c1cccnc1)c1ccc(-c2ccccc2)cc1	rule not met
CC(C)(C)OC(=O)CC[C@]1(C(=O)N2CCOCC2)N=C(c2ccc(OCCCO)cc2)O[C@H]1c1ccccc1	rule met
COc1ccccc1CN1C(=O)c2ccccc2[C@@H](C(=O)NC(C)C)[C@@H]1c1ccc(CO)cc1	rule met
COc1cc(OC)c(C(O)C2C=CC3C(=O)N(c4ccccc4)C(=O)C3N2Nc2ccc(C#N)cc2)cc1Br (centres undefined)	rule not met
O=C1O[C@@H](c2ccccc2)[C@@H](c2ccccc2)N2[C@@H](c3ccccc3OCCO)[C@]3(C(=O)Nc4ccc(C#CCCO)cc43)[C@@H](C(=O)N3CCN(c4ncccn4)CC3)[C@H]12	rule not met
CC(C)C(CO)N1C(=O)[C@]2(C)C3C(=O)OCCC/C=C\[C@H]3OC23C=CCN(c2ccc(Cl)cc2)C(=O)[C@@H]13 (some centres undefined)	rule met
C[C@@H](OCc1ccccc1)C1NC(=O)[C@@]23C(=O)N[C@@H](Cc4ccccc4)C2[C@H](C)[C@@]2(C)O[C@H]2C3/C=C/C/C=C\CNC(=O)CNC1=O (some centres undefined)	rule met
COc1ccc(C(O)C2C=CC3C(=O)N(c4ccccc4)C(=O)C3N2Nc2ccccc2)cc1OCc1ccccc1 (centres undefined)	rule met
[N-]=[N+]=Nc1ccccc1C[C@@]1(C(=O)O)N=C(c2ccc(OCCCO)cc2)O[C@@H]1c1ccccc1	rule not met
C[C@@H]1ON(c2ccc(C(=O)OC(C)(C)C)cc2)[C@H](c2ccc(Br)cc2)[C@H]1C(=O)N1C(=O)OC[C@H]1Cc1ccccc1	rule not met
CCOC(=O)C[C@H]1[C@H](OC(=O)Cc2ccc3c(c2)OCO3)[C@@H](NC(=O)Cc2ccc(OC)cc2)c2cc(OCCCO)ccc2N1C(=O)c1ccccc1	rule met
COc1cc2c(cc1OC)CN(C(=O)[C@@H]1[C@H]3C(=O)O[C@H](c4ccccc4)[C@H](c4ccccc4)N3[C@H](c3ccccc3OCCO)[C@@]13C(=O)Nc1ccc(C#CC4(O)CCCCCC4)cc13)CC2	rule not met
COc1c(C)cc(-c2cc3c(c(Cc4ccccc4)n2)[Si](C(C)C)(C(C)C)OC3)cc1C	rule not met
CCOc1cc(C(O)C2C=CC3C(=O)N(C)C(=O)C3N2N2CCCCC2)ccc1O (centres undefined)	rule not met
O=C1O[C@@H](c2ccccc2)[C@@H](c2ccccc2)N2[C@@H](c3ccccc3OCCO)[C@]3(C(=O)Nc4ccccc43)[C@@H](C(=O)NC[C@H](O)c3ccccc3)[C@H]12	rule not met
CC(C)CN1C(=O)[C@@]2(Cc3ccccc31)c1ccccc1C(=O)N(Cc1ccccc1C(F)(F)F)[C@H]2c1ccc(CO)cc1	rule met

These measurements were taken from PubChem BioAssay.
